# target entity: Fuc(a1-2)Gal(b1-4)[Fuc(a1-3)]GlcNAc(b1-2)Man(a1-3)[Fuc(a1-2)Gal(b1-4)[Fuc(a1-3)]GlcNAc(b1-2)Man(a1-6)]Man(b1-4)GlcNAc(b1-4)[Fuc(a1-6)]GlcNAc
# experiment description: glycan array binding signal (z-score within array); higher = stronger binding
# condition label: glycan notation: IUPAC condensed, linker removed
Many of the other results were omitted from the sample, so the strongest signals are more common in it than they were.
readout: glycan array binding signal (z-score)

binder	reported value
cFel (Cyprinus carpio), P68512 (protein) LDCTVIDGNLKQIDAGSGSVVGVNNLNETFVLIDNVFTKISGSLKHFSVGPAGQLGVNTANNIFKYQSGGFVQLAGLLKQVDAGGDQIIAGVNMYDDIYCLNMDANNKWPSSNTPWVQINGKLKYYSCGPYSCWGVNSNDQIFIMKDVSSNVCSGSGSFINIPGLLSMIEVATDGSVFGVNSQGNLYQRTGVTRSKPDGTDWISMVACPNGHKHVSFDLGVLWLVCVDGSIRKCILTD	3.47
